Test system: Pichia kudriavzevii
method: Antifungal activity against Candida krusei after 24 hrs by serial dilution method
Assay type: functional
measurementLabel: log10 MIC80 (log10 of the value in µg/mL)
Recall that a logarithmic scale is used here: each number is log10 of MIC80 in µg/mL.

Request: log10 MIC80, test system Pichia kudriavzevii, entry COc1ccc(CON=C2CCN(CC(O)(Cn3cncn3)c3ccc(F)cc3F)CC2)cc1 (racemic) 0.60

Record: CCCc1ccc(CON=C2CCN(CC(O)(Cn3cncn3)c3ccc(F)cc3F)CC2)cc1 (racemic) 1.81

Record: OC(Cn1cncn1)(Cn1cncn1)c1ccc(F)cc1F 0.00

Record: CCc1ccc(CON=C2CCN(CC(O)(Cn3cncn3)c3ccc(F)cc3F)CC2)cc1 (racemic) 1.81

Record: C[C@@H](c1ncncc1F)[C@](O)(Cn1cncn1)c1ccc(F)cc1F -1.80

Record: OC(CN1CCC(=NOCc2cccc(Cl)c2)CC1)(Cn1cncn1)c1ccc(F)cc1F (racemic) -0.60

Record: CCC(C)n1ncn(-c2ccc(N3CCN(c4ccc(OCC5COC(Cn6cncn6)(c6ccc(Cl)cc6Cl)O5)cc4)CC3)cc2)c1=O (stereo not given) -0.60

Record: C=Cc1ccc(CON=C2CCN(CC(O)(Cn3cncn3)c3ccc(F)cc3F)CC2)cc1 (racemic) 1.81

Record: OC(CN1CCC(=NOCc2ccc(Cl)c(Cl)c2)CC1)(Cn1cncn1)c1ccc(F)cc1F (racemic) -0.60

Record: OC(CN1CCC(=NOCc2ccc(C(F)(F)F)cc2)CC1)(Cn1cncn1)c1ccc(F)cc1F (racemic) 1.81

Record: OC(CN1CCC(=NOCc2ccc(F)cc2)CC1)(Cn1cncn1)c1ccc(F)cc1F (racemic) -0.60

Record: ON=C1CCN(CC(O)(Cn2cncn2)c2ccc(F)cc2F)CC1 (stereo not given) 0.60

Record: Cc1ccccc1CON=C1CCN(CC(O)(Cn2cncn2)c2ccc(F)cc2F)CC1 (racemic) 1.81

Record: OC(CN1CCC(=NOCc2ccccc2)CC1)(Cn1cncn1)c1ccc(F)cc1F (racemic) -1.20

Record: OC(CN1CCC(=NOCc2ccccc2Br)CC1)(Cn1cncn1)c1ccc(F)cc1F (racemic) -0.60

----------
System: Pichia kudriavzevii
method: Antifungal activity against Candida krusei after 24 hrs by serial dilution method
Type: functional
measurementLabel: MIC80 (µg/mL)
Answer with a number only, understood to be in µg/mL.

# input molecule: OC(CN1CCC(=NOCc2cccc(Br)c2)CC1)(Cn1cncn1)c1ccc(F)cc1F (racemic) ; wanted: its MIC80 0.25

Record: OC(CN1CCC(=NOCc2cccc(F)c2)CC1)(Cn1cncn1)c1ccc(F)cc1F (racemic) 0.25

Record: OC(CN1CCC(=NOCc2ccc(Cl)cc2)CC1)(Cn1cncn1)c1ccc(F)cc1F (racemic) 0.25

Record: OC(CN1CCC(=NOCc2ccc(Br)cc2)CC1)(Cn1cncn1)c1ccc(F)cc1F (racemic) 0.25

Record: O=[N+]([O-])c1cccc(CON=C2CCN(CC(O)(Cn3cncn3)c3ccc(F)cc3F)CC2)c1 (racemic) 1

Record: OC(CN1CCC(=NOCc2ccccc2Cl)CC1)(Cn1cncn1)c1ccc(F)cc1F (racemic) 0.25

Record: OC(CN1CCC(=NOCc2ccc(Cl)cc2Cl)CC1)(Cn1cncn1)c1ccc(F)cc1F (racemic) 0.25

Record: Cc1cccc(CON=C2CCN(CC(O)(Cn3cncn3)c3ccc(F)cc3F)CC2)c1 (racemic) 64

----------
System: Candida albicans
method: Antifungal activity against Candida albicans after 24 hrs by serial dilution method
Type: functional
With a cut-off of 0.02 µg/mL, any MIC80 strictly below it is called rule met; any MIC80 meeting it or above is called rule not met.

Consider COc1cccc(CON=C2CCN(CC(O)(Cn3cncn3)c3ccc(F)cc3F)CC2)c1 (racemic) . Does its MIC80 lie strictly below 0.02 µg/mL? rule not met

Record: OC(CN1CCC(=NOCc2ccccc2F)CC1)(Cn1cncn1)c1ccc(F)cc1F (racemic) rule met

Record: OC(CN1CCC(=NOCc2cccc3ccccc23)CC1)(Cn1cncn1)c1ccc(F)cc1F (racemic) rule not met

Record: OC(CN1CCC(=NOCc2ccccc2Cl)CC1)(Cn1cncn1)c1ccc(F)cc1F (racemic) rule met

Record: OC(CN1CCC(=NOCc2cccc(Cl)c2)CC1)(Cn1cncn1)c1ccc(F)cc1F (racemic) rule met

Record: CCC(C)n1ncn(-c2ccc(N3CCN(c4ccc(OCC5COC(Cn6cncn6)(c6ccc(Cl)cc6Cl)O5)cc4)CC3)cc2)c1=O (centres undefined) rule met

Record: OC(Cn1cncn1)(Cn1cncn1)c1ccc(F)cc1F rule not met

Record: OC(CN1CCC(=NOCc2ccccc2)CC1)(Cn1cncn1)c1ccc(F)cc1F (racemic) rule met

Record: N#Cc1ccc(CON=C2CCN(CC(O)(Cn3cncn3)c3ccc(F)cc3F)CC2)cc1 (racemic) rule not met

----------
Record form. Attribute: MIC80. Fill in for each entry.
Tested on: Candida parapsilosis
method: Antifungal activity against Candida parapsilosis after 24 hrs by serial dilution method
Assay type: functional
particulars: Lodderomyces parapsilosis
Answer with a number only, understood to be in µg/mL.

# input compound: OC(CN1CCC(=NOCc2ccc3ccccc3c2)CC1)(Cn1cncn1)c1ccc(F)cc1F (racemic) ; wanted: its MIC80 0.016

Record: C=Cc1ccc(CON=C2CCN(CC(O)(Cn3cncn3)c3ccc(F)cc3F)CC2)cc1 (racemic) 64

Record: ON=C1CCN(CC(O)(Cn2cncn2)c2ccc(F)cc2F)CC1 (stereo not drawn) 16

Record: OC(CN1CCC(=NOCc2ccc(Cl)cc2Cl)CC1)(Cn1cncn1)c1ccc(F)cc1F (racemic) 0.016

Record: OC(CN1CCC(=NOCc2cccc3ccccc23)CC1)(Cn1cncn1)c1ccc(F)cc1F (racemic) 0.0625

Record: N#Cc1ccc(CON=C2CCN(CC(O)(Cn3cncn3)c3ccc(F)cc3F)CC2)cc1 (racemic) 0.0625

Record: COc1ccc(CON=C2CCN(CC(O)(Cn3cncn3)c3ccc(F)cc3F)CC2)cc1 (racemic) 4

Record: OC(CN1CCC(=NOCc2ccccc2Cl)CC1)(Cn1cncn1)c1ccc(F)cc1F (racemic) 0.004

Record: OC(CN1CCC(=NOCc2ccccc2Br)CC1)(Cn1cncn1)c1ccc(F)cc1F (racemic) 0.0625

Record: OC(CN1CCC(=NOCc2cccc(Br)c2)CC1)(Cn1cncn1)c1ccc(F)cc1F (racemic) 0.016

Record: OC(CN1CCC(=NOCc2ccc(Cl)c(Cl)c2)CC1)(Cn1cncn1)c1ccc(F)cc1F (racemic) 0.25

Record: CCc1ccc(CON=C2CCN(CC(O)(Cn3cncn3)c3ccc(F)cc3F)CC2)cc1 (racemic) 64

Record: OC(CN1CCC(=NOCc2ccccc2)CC1)(Cn1cncn1)c1ccc(F)cc1F (racemic) 0.004

Record: Cc1cccc(CON=C2CCN(CC(O)(Cn3cncn3)c3ccc(F)cc3F)CC2)c1 (racemic) 64

Record: OC(CN1CCC(=NOCc2ccc(Br)cc2)CC1)(Cn1cncn1)c1ccc(F)cc1F (racemic) 0.016

Record: OC(CN1CCC(=NOCc2ccccc2F)CC1)(Cn1cncn1)c1ccc(F)cc1F (racemic) 0.0625

Record: O=[N+]([O-])c1ccc(CON=C2CCN(CC(O)(Cn3cncn3)c3ccc(F)cc3F)CC2)cc1 (racemic) 0.004

Record: Cc1ccccc1CON=C1CCN(CC(O)(Cn2cncn2)c2ccc(F)cc2F)CC1 (racemic) 64

----------
Tested on: Aspergillus fumigatus
method: Antifungal activity against Aspergillus fumigatus after 7 days by serial dilution method
Type: functional
particulars: 168 h
Record form. Attribute: MIC80. Fill in for each entry.
Answer with a number only, understood to be in µg/mL.

# input compound: N#Cc1ccc(CON=C2CCN(CC(O)(Cn3cncn3)c3ccc(F)cc3F)CC2)cc1 (racemic) ; wanted: its MIC80 1

Record: OC(CN1CCC(=NOCc2cccc(F)c2)CC1)(Cn1cncn1)c1ccc(F)cc1F (racemic) 0.25

Record: CCCc1ccc(CON=C2CCN(CC(O)(Cn3cncn3)c3ccc(F)cc3F)CC2)cc1 (racemic) 64

Record: COc1cccc(CON=C2CCN(CC(O)(Cn3cncn3)c3ccc(F)cc3F)CC2)c1 (racemic) 64

Record: CCC(C)n1ncn(-c2ccc(N3CCN(c4ccc(OCC5COC(Cn6cncn6)(c6ccc(Cl)cc6Cl)O5)cc4)CC3)cc2)c1=O (stereo unspecified) 1

Record: OC(CN1CCC(=NOCc2cccc3ccccc23)CC1)(Cn1cncn1)c1ccc(F)cc1F (racemic) 1

Record: OC(CN1CCC(=NOCc2ccc3ccccc3c2)CC1)(Cn1cncn1)c1ccc(F)cc1F (racemic) 1

Record: COc1ccc(CON=C2CCN(CC(O)(Cn3cncn3)c3ccc(F)cc3F)CC2)cc1 (racemic) 64

Record: OC(CN1CCC(=NOCc2cccc(Cl)c2)CC1)(Cn1cncn1)c1ccc(F)cc1F (racemic) 1

Record: OC(CN1CCC(=NOCc2ccccc2Br)CC1)(Cn1cncn1)c1ccc(F)cc1F (racemic) 1

Record: OC(CN1CCC(=NOCc2cccc(Br)c2)CC1)(Cn1cncn1)c1ccc(F)cc1F (racemic) 1

Record: Cc1cccc(CON=C2CCN(CC(O)(Cn3cncn3)c3ccc(F)cc3F)CC2)c1 (racemic) 64

Record: OC(CN1CCC(=NOCc2ccccc2)CC1)(Cn1cncn1)c1ccc(F)cc1F (racemic) 1

Record: OC(CN1CCC(=NOCc2ccc(F)cc2)CC1)(Cn1cncn1)c1ccc(F)cc1F (racemic) 1

Record: C[C@@H](c1ncncc1F)[C@](O)(Cn1cncn1)c1ccc(F)cc1F 0.0625

Record: O=[N+]([O-])c1ccc(CON=C2CCN(CC(O)(Cn3cncn3)c3ccc(F)cc3F)CC2)cc1 (racemic) 1

Record: Cc1ccc(CON=C2CCN(CC(O)(Cn3cncn3)c3ccc(F)cc3F)CC2)cc1 (racemic) 64

Record: OC(CN1CCC(=NOCc2ccc(C(F)(F)F)cc2)CC1)(Cn1cncn1)c1ccc(F)cc1F (racemic) 64

Record: C=Cc1ccc(CON=C2CCN(CC(O)(Cn3cncn3)c3ccc(F)cc3F)CC2)cc1 (racemic) 64

Record: OC(CN1CCC(=NOCc2ccccc2F)CC1)(Cn1cncn1)c1ccc(F)cc1F (racemic) 1

Record: OC(CN1CCC(=NOCc2ccc(Cl)cc2)CC1)(Cn1cncn1)c1ccc(F)cc1F (racemic) 1

Record: OC(CN1CCC(=NOCc2ccc(Cl)cc2Cl)CC1)(Cn1cncn1)c1ccc(F)cc1F (racemic) 4

Record: O=[N+]([O-])c1cccc(CON=C2CCN(CC(O)(Cn3cncn3)c3ccc(F)cc3F)CC2)c1 (racemic) 1

Record: OC(CN1CCC(=NOCc2ccc(Br)cc2)CC1)(Cn1cncn1)c1ccc(F)cc1F (racemic) 1

Record: CCc1ccc(CON=C2CCN(CC(O)(Cn3cncn3)c3ccc(F)cc3F)CC2)cc1 (racemic) 64

Record: OC(CN1CCC(=NOCc2ccc(Cl)c(Cl)c2)CC1)(Cn1cncn1)c1ccc(F)cc1F (racemic) 1

Record: Cc1ccccc1CON=C1CCN(CC(O)(Cn2cncn2)c2ccc(F)cc2F)CC1 (racemic) 64

Record: OC(CN1CCC(=NOCc2cccc(C(F)(F)F)c2)CC1)(Cn1cncn1)c1ccc(F)cc1F (racemic) 64

Record: OC(CN1CCC(=NOCc2ccccc2Cl)CC1)(Cn1cncn1)c1ccc(F)cc1F (racemic) 1

Sourced from ChEMBL document CHEMBL1157917
